- System: TK-10 renal
- measurement.notes: NCI tumour cell line growth inhibition, 48 h
Where a SMILES comes first, the peptide text is derived from it. The star is where a group is joined. Trt = c1ccc(C(c2ccccc2)(c2ccccc2)*)cc1; Cbz = O=C(OCc1ccccc1)*
measured.parameter: log10(TGI) (log10 of the value in µM)
// stored as log10 of TGI expressed in µM

Some compounds with recorded log10(TGI):
[
  {
    "compound": "CC(=O)Nc1ccc(-c2nnc(SCC(=O)Nc3ccc(Cl)cc3)o2)cc1",
    "experimental.target": "TK-10 renal",
    "log10(TGI)": 1.51
  },
  {
    "compound": "CC(C)(C)Sc1nnc(SC(C)(C)C)c2c(=O)[nH]nc(SC(C)(C)C)c12",
    "experimental.target": "TK-10 renal",
    "log10(TGI)": 1.58
  },
  {
    "compound": "CC(/C=N/N=C(N)N)=N\\N=C(N)N",
    "experimental.target": "TK-10 renal",
    "log10(TGI)": 2.91
  },
  {
    "compound": "C=C(C)[C@@H]1CC[C@]2(C(=O)NC(C)=O)CC[C@]3(C)[C@H](CC[C@@H]4[C@@]5(C)CCCNC(C)(C)[C@@H]5CC[C@]43C)[C@@H]12",
    "experimental.target": "TK-10 renal",
    "log10(TGI)": 0.53
  },
  {
    "compound": "CC(=O)c1sc2[n+](c1C)C(=O)/C(=C\\c1ccccc1Cl)S2",
    "experimental.target": "TK-10 renal",
    "log10(TGI)": 1.76
  }
]

Fill in log10(TGI) for each of the 8 compounds listed.
1. COc1cccc2c1cc1c3c(cc4c(c32)OCO4)C(=O)N1
2. COC(=O)C(CSC(c1ccccc1)(c1ccccc1)c1ccccc1)NC(=O)C(CC(N)=O)NC(=O)OCc1ccccc1 (stereo not drawn) (Cbz-Asn-Cys(Trt)-OMe; configuration not given here)
3. CCOC(=O)c1c(C)n(Cc2ccccc2)c2c1cc1oc(=O)c(=O)n3cnc2c13
4. c1ccc(-c2ccnc3c2ccc2c(-c4ccccc4)ccnc23)cc1
5. O=c1[nH]c2ccc([N+](=O)[O-])cc2nc1/C=C(\O)c1ccccc1
6. c1ccc(-c2nnc3nn4c(-c5ccccc5)cnnc4c3c2-c2ccccc2)cc1
7. CCCCCCCCCCSC(=N)N
8. Nc1nc(N)c2c(n1)NC(c1sc(Cl)nc1Cl)CC(c1ccc3c(c1)OCO3)=N2 (stereo unspecified)

[0.80, 1.43, 1.63, 0.00, 1.17, 1.92, 0.61, 1.65]

Fill in log10(TGI) for each of the 3 compounds listed.
1. O=C1C(c2c(O)[nH]c3ccc(S(=O)(=O)NCCO)cc23)=Nc2ccccc21
2. C=C(C)[C@@H]1CC[C@]2(CO)CC[C@]3(C)[C@H](CC[C@@H]4[C@@]5(C)CC[C@H](NCO)C(C)(C)[C@@H]5CC[C@]43C)[C@@H]12
3. COc1cc(/C=N/NC(=O)c2ccccc2Nc2cccc(C(F)(F)F)c2)cc(OC)c1OC

1.63
0.25
0.94

Fill in log10(TGI) for each of the 3 compounds listed.
1. Cc1c(Cl)c(C)c(Cc2c(C)c(Cl)c(C)c(Cl)c2O)c(O)c1Cl
2. O=C1N(c2ccccc2)C(=S)/C(=C/c2ccc(Cl)cc2)N1c1ccc(Cl)cc1
3. O=C(C=C=Nc1ccccc1)C(=O)N=C=Cc1ccccc1

1. 1.24
2. 1.95
3. 0.83
